# Assay Protocol: Cytotoxicity against human KB cells assessed as inhibition of cell proliferation at 10^-5 M after 72 hrs by MTS assay relative control
# Assay type: cell-based
The entries below are paired with their reported inhibition at 72 h, 10 µM.
Number only, in %; omit the unit.

>>> data_value("COc1cc(C2/C(=C\\c3cc(OC)c(O)c(OC)c3)C(=O)c3cccn32)ccc1O (centres undefined)")
0
>>> data_value("COc1ccc(/C=C2/C(=O)c3cccn3C2c2ccc(OC)c(O)c2)cc1O (centres undefined)")
24
>>> data_value("COc1cc(/C=C/C(=O)CC(=O)/C=C/c2ccc(O)c(OC)c2)ccc1O")
83
>>> data_value("COc1cc(C2/C(=C\\c3ccc(OCc4ccccc4)c(OCc4ccccc4)c3)C(=O)c3cccn32)ccc1OCc1ccccc1 (centres undefined)")
0
>>> data_value("O=C1/C(=C/c2ccccc2)C(c2ccccc2)n2cccc21 (centres undefined)")
41
>>> data_value("COc1cc(/C=C2/C(=O)c3cccn3C2c2ccc(O)c(OC)c2)ccc1O (centres undefined)")
0
>>> data_value("COc1ccc(/C=C2/C(=O)c3cccn3C2c2ccc(O)c(OC)c2)c(OC)c1 (centres undefined)")
38
>>> data_value("COc1cc(/C=C2/C(=O)c3cccn3C2c2ccccc2)ccc1O (centres undefined)")
24

Let us move to another entry and its inhibition at 72 h, 10 µM.
For COc1ccc(C2/C(=C\c3ccc(O)c(OC)c3)C(=O)c3cccn32)cc1O (centres undefined) , what is its reported inhibition at 72 h, 10 µM? 29
